Every entry's value here was drawn from patent US20220378931A1.

Biological target: T1, mouse serum albumin (mouse, UniProt P07724 25-608)
T1 construct: bought protein, amine-coupled to a CM5 chip; also called Mouse SA
Assay: SPR (Biacore 8K), albumin immobilised, 25 C, 1:1 kinetics
Protocol: Immobilization of serum albumin to a Series S Sensor Chip CM5 surface is performed according to the manufacturer's instructions (Amine Coupling Kit BR-1000-50). Briefly, carboxyl groups on the sensor chip surfaces (flow cell 1 and 2) are activated by injecting 70 μL of a mixture containing 75 mg/ml EDC and 11.5 mg/ml NHS at 10 μL/min. […]
pKd: −log10 of the molar value.
Measurement type: pKd

Binder | Observed
INS Analog 26 (other, single-chain insulin B-L2-A-L1-VHH fusion; also called Ex. 26) FVSQHLCGSHLVEALRLVCGERGFFYTPKTGGGGGGGIVEQCCTSICSLYQLENYCGPGPQPGPQPGPQPGPQPGPQPGPQPGPQPGPQEVQLLESGGGLVQPGGSLRLSCAASGRYIDETAVAWFRQAPGKEREFVAGIGGGVDITYYADSVKGRFTISRDNSKNTLYLQMNSLRPEDTAVYYCAARPGRPLITSKVADLYPYWGQGTLVTVSSPP | 7.46
